Data provenance is paper PMC5596338.

Assay: Short-term (24-hour) skeletal retention based on urinary excretion after i.v. dosing
Format: in vivo, Sprague Dawley rats
Conditions: rats, i.v.; calculated as dose administered minus urinary excretion over 24 hours
Each record here notes measured Skeletal retention (% of administered dose).

| COMPOUND | REPORTED_RESULT |
| --- | --- |
| O=P(O)(O)C(F)(Cc1cnc2ccccn12)P(=O)(O)O | 47.15 ± 3.82 % of administered dose |

Can you look up the measured Skeletal retention (% of administered dose) of O=P(O)(O)C(O)(Cc1cccnc1)P(=O)(O)O [Risedronate, risedronate] for me?
65.1 ± 9.31 % of administered dose

So what does the record say about Skeletal retention (% of administered dose) for O=P(O)(O)C(O)(Cc1cnc2ccccn12)P(=O)(O)O [Minodronate, minodronate] ?
55.2 ± 1.6 % of administered dose

Which value of Skeletal retention (% of administered dose) has been reported for O=P(O)(O)C(O)(Cn1ccnc1)P(=O)(O)O [Zoledronate, zoledronate] in the records?
72.05 ± 3.18 % of administered dose
